// data source = patent US7829708B2

- System Tested: human DHFR (Homo sapiens, UniProt P00374)
- Sequence (P00374 whole entry): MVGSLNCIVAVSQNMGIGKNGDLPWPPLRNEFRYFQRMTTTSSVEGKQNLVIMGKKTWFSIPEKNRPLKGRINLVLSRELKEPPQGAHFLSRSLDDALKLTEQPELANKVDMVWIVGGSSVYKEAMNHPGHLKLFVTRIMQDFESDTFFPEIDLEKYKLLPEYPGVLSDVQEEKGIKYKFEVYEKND
- Assay Notes: Inhibition of recombinant dihydrofolate reductase in vitro
- Measurement Parameters: read-out: I50 (human DHFR)
- Text: The ability of M-TREX to inhibit recombinant dihydrofolate reductase (DR) and thymidylate synthase (TS) in vitro studied in comparison to other antifolate drugs.
pIC50: −log10 of the molar value.

Compound	pIC50
C=C(CC(NC(=O)c1ccc(CCc2ccc3nc(N)nc(N)c3c2)cc1)C(=O)O)C(=O)O (centres unmarked)	7.77
C=C(CC(NC(=O)c1ccc(CCc2cnc3nc(N)nc(N)c3n2)cc1)C(=O)O)C(=O)O (centres unmarked) [MDAM, methylene-1-deazaaminopterine, reference compound]	7.36

###

- System Tested: UniProt P04818
- Sequence (P04818 whole entry): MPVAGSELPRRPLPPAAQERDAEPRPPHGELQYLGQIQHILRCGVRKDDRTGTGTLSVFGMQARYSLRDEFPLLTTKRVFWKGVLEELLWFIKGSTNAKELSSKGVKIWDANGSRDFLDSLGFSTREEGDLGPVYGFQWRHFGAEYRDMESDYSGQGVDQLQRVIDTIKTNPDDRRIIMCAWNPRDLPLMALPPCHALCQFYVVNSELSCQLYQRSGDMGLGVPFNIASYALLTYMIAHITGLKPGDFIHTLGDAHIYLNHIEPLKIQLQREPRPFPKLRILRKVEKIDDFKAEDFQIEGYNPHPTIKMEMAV
- Assay Notes: Inhibition of recombinant thymidylate synthase in vitro
- Measurement Parameters: read-out: I50 (Human TS)
- From the text: The ability of M-TREX to inhibit recombinant dihydrofolate reductase (DR) and thymidylate synthase (TS) in vitro studied in comparison to other antifolate drugs.
pIC50: −log10 of the molar value.

Molecule	pIC50
C=C(CC(NC(=O)c1ccc(CCc2ccc3nc(N)nc(N)c3c2)cc1)C(=O)O)C(=O)O (stereo not shown)	5.42
